molecular target: Recombinant wild-type TTR (Homo sapiens, UniProt P02766); assay: KD determination by ITC (Isothermal Titration Calorimetry); conditions: 25° C., sequential binding model with 2 sites, first site, read-out: Geometric Mean KD1 (μM) [ITC]
QUANTITY_NAME: Kd (µM)
Answers are plain numbers, in µM.

SMILES: Cc1n[nH]c(C)c1-c1cccc2scnc12
OUTPUT_UNIT: µM
Kd: 0.025

Now for a further compound.
Value of Kd reported for the compound Cc1n[nH]c(C)c1-c1cccc2ncsc12 is 0.005

---

molecular target: human TTR (biotinylated recombinant protein) (Homo sapiens, UniProt P02766); construct: biotin (biotinylated); experiment: TTR SPA binding assay ([3H] tafamidis displacement), EC50 determination; conditions: SPA, 50 nM [3H] tafamidis, 100 ng human TTR; read-out: Geometric Mean EC50
QUANTITY_NAME: pEC50
Give bare numbers, as −log10 of the molar value.

Worked examples, 5 compounds total:
SMILES: Cc1n[nH]c(C)c1-c1cc(C#N)cc2scnc12
pEC50: 6.80
--
SMILES: Cc1n[nH]c(C)c1-c1ccc(C)c2scnc12
pEC50: 7.70
--
SMILES: Cc1n[nH]c(C)c1-c1ccc(C#N)c2scnc12
pEC50: 7.28
--
SMILES: Cc1[nH]nc(C(F)(F)F)c1-c1cccc2scnc12
pEC50: 6.88
--
SMILES: Cc1n[nH]c(C)c1-c1nccc2scnc12
pEC50: 6.05

Return reported pEC50 values for all items listed beneath this line.
1. Cc1n[nH]c(C)c1-c1ccc(C(F)(F)F)c2scnc12
2. Cc1n[nH]c(C)c1-c1c(F)ccc2scnc12

7.40
7.54

---

Target: human TTR (biotinylated recombinant protein) (Homo sapiens)
Construct: biotin (biotinylated)
Assay: TTR SPA binding assay ([3H] tafamidis displacement), EC50 determination
Settings: read-out: Geometric Mean EC50
Procedure: Binding of Examples to Transthyretin—EC50 Determination Briefly, assays were prepared at room temperature in 384-well plates (Corning, 3767) containing 200 nL of test compound in DMSO (or DMSO as vehicle). […] The assays were incubated an additional 10 hours to allow binding to reach equilibrium and the amount of receptor-ligand complex was determined by liquid scintillation counting using a 1450 Microbeta Trilux (Wallac). […]
So I've got a bunch of compounds here, and I need their EC50 values.
Give bare numbers, in nM.

Look over these answered cases.
SMILES: Cc1[nH]nc(C#N)c1-c1ccc(C)c2scnc12
SYSTEM_TESTED: human TTR (biotinylated recombinant protein) (Homo sapiens)
EC50 / nM: 19.6

SMILES: Cc1cc(-c2c(C)n[nH]c2C)c2ncsc2c1
SYSTEM_TESTED: human TTR (biotinylated recombinant protein) (Homo sapiens)
EC50 / nM: 21.4

SMILES: COc1cc(-c2c(C)n[nH]c2C)c2ncsc2c1
SYSTEM_TESTED: human TTR (biotinylated recombinant protein) (Homo sapiens)
EC50 / nM: 24.5

SMILES: Cc1n[nH]c(C)c1-c1cc(F)cc2scnc12
SYSTEM_TESTED: human TTR (biotinylated recombinant protein) (Homo sapiens)
EC50 / nM: 20.5

Moving on to another compound below.
Looking up Cc1[nH]nc(C#N)c1-c1ccc(C(F)(F)F)c2scnc12 , I found its EC50 recorded as 35.5

---

molecular target: Bap-tagged TTR protein (Homo sapiens, UniProt P02766); construct: Bap tag (biotin acceptor peptide, by own knowledge); assay: KD determination by SPR (Surface Plasmon Resonance binding assay); conditions: 1:1 binding model, read-out: Geometric Mean KD (μM) [SPR]
Classify: yes (1) when Kd is strictly less than 0.05 µM; no (0) when Kd is not.

Below, 4 compounds whose answers are already recorded.
SMILES: Cc1n[nH]c(C)c1-c1ccc(C#N)c2scnc12
GROUP_LABEL: no (0)
--
SMILES: Cc1nc2c(-c3c(C)n[nH]c3C)cccc2s1
GROUP_LABEL: no (0)
--
SMILES: Cc1[nH]nc(C#N)c1-c1ccc(C)c2scnc12
GROUP_LABEL: yes (1)
--
SMILES: Cc1[nH]nc(C#N)c1-c1ccc(C(F)(F)F)c2scnc12
GROUP_LABEL: no (0)

For the next question, use this compound.
Find out if reported Kd for Cc1n[nH]c(C)c1-c1cccc2scnc12 is less than 0.05 µM
yes (1)

---

biological target: human TTR (biotinylated recombinant protein) (Homo sapiens); construct: biotin (biotinylated); test: TTR SPA binding assay ([3H] tafamidis displacement), EC50 determination; settings: SPA, 50 nM [3H] tafamidis, 100 ng human TTR; read-out: Geometric Mean EC50
pEC50: −log10 of the molar value.
Parameter threshold = 7. Response is true when pEC50 meets or exceeds it, else false.

These recorded examples may help you get a feel for the data.
SMILES: Cc1n[nH]c(C)c1-c1cccc2scnc12
GROUP_LABEL: true
//
SMILES: Cc1n[nH]c(C)c1-c1ccnc2scnc12
GROUP_LABEL: false
//
SMILES: Cc1nc2c(-c3c(C)n[nH]c3C)cccc2s1
GROUP_LABEL: false

Say whether COc1ccc(-c2c(C)n[nH]c2C)c2ncsc12 shows pEC50 of 7 or more.
true

Given the entry Cc1n[nH]c(C)c1-c1ccc(F)c2scnc12 , answer whether its pEC50 meets or surpasses 7.
true

---

molecular target: Bap-tagged TTR protein (Homo sapiens); construct: Bap tag (biotin acceptor peptide, by own knowledge); experiment: KD determination by SPR (Surface Plasmon Resonance binding assay); details: 1:1 binding model, read-out: Geometric Mean KD (μM) [SPR]
QUANTITY_NAME: Kd (µM)
Answers are plain numbers, in µM.

Below, 3 compounds whose answers are already recorded.
SMILES: COc1cc(-c2c(C)n[nH]c2C)c2ncsc2c1
VAL: 0.031

SMILES: Cc1cc(-c2c(C)n[nH]c2C)c2ncsc2c1
VAL: 0.058

SMILES: Cc1n[nH]c(C)c1-c1ccc(C(F)(F)F)c2scnc12
VAL: 0.049

Record Kd per entry; entries follow.
1. Cc1n[nH]c(C)c1-c1ccc(C)c2scnc12
2. Cc1[nH]nc(C#N)c1-c1cccc2scnc12
3. Cc1n[nH]c(C)c1-c1nccc2scnc12
4. Cc1n[nH]c(C)c1-c1cc(F)cc2scnc12

0.02
0.074
0.297
0.027

Numbers sourced from patent US20220184041A1.
